The entries below are paired with their reported relative binding capacity (100-%n, DMSO subtracted).
ASSAYED TARGET: T1, PKC-βII (purified isoform) (Homo sapiens (Human), UniProt P05771 2-621)
T1 construct: also called PKC-beta II; PKC beta 2
T1 sequence (P05771 other isoform, or with tags, fused parts or gaps limits assumed): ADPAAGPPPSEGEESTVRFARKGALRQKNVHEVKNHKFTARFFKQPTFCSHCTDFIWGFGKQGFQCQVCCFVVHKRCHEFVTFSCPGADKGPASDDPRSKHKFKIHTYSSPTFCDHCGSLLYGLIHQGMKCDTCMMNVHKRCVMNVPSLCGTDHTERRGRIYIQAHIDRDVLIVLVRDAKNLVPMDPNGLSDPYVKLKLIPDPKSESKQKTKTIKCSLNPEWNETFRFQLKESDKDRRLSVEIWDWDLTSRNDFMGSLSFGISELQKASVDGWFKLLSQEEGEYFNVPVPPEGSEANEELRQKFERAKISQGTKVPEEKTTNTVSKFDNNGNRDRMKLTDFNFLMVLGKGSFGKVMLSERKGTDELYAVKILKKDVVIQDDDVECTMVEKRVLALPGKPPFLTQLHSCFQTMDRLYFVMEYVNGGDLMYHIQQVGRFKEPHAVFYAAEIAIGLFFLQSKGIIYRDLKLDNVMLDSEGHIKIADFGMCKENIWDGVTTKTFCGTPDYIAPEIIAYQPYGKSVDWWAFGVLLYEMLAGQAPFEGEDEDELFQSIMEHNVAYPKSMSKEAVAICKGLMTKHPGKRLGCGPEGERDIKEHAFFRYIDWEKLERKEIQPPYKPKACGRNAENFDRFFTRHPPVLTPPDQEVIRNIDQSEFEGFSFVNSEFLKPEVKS
ASSAY PROCEDURE: competitive ELISA, coated purified PKC-βII, vs anti-PKC βII (SC-210); PRE 50 µM
Output spec: scalar in %, unitless text.

Look over these answered cases.
Ac-KDANQLIGISI-NH2 (also called peptide PRE 6) [PRE 6]	0.08
Ac-RDAQNLI-NH2 (Ac-RDAQNLI-NH2; also called peptide PRE 13) [PRE 13]	0
ILEDKGGDAQNLIGISI (also called peptide PRE 8) [PRE 8]	1.11
Ac-RDAQNLIGISI-NH2 (also called peptide PRE 11) [PRE 11]	7.14
Ac-KDAQNLIGISI-NH2 (also called peptide PRE 4) [PRE 4]	2.69
Ac-ISIGILQNADK-NH2 (also called peptide PRE 7) [PRE 7]	5.42

Entry Ac-ISIGILNQADK-NH2 (also called peptide PRE 10) [PRE 10] has what relative binding capacity (100-%n, DMSO subtracted)?
0

Entry Ac-KDAQNLI-NH2 (Ac-KDAQNLI-NH2; also called peptide PRE 12) [PRE 12] has what relative binding capacity (100-%n, DMSO subtracted)?
4.55

Entry RRKKGGKDFVVKR (also called peptide PRE 1; peptide recognition element 1) [PRE 1] has what relative binding capacity (100-%n, DMSO subtracted)?
0

Entry Ac-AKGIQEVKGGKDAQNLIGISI-NH2 (also called peptide PRE 5) [PRE 5] has what relative binding capacity (100-%n, DMSO subtracted)?
0
